SYSTEM TESTED: Solute carrier organic anion transporter family member 1B3 (Homo sapiens, UniProt Q9NPD5)
SETTINGS: chinese hamster, cho, 10 µM
Listing of entries alongside the reported residual activity.
Returns: string containing the number followed by the unit.

Past entries and their recorded results:
[[record]]
molecule = "O=C(O)[C@H](O)[C@@](O)(Cc1ccc(O)cc1)C(=O)O"
observation_type = "residual activity"
endpoint_result = "90.37%"

[[record]]
molecule = "C=C1[C@@H]([C@@]2(C)C=CC(=O)C(C)(C)[C@@H]2CC(=O)OC)CC[C@@]2(C)[C@H](c3ccoc3)OC(=O)[C@H]3O[C@]132"
observation_type = "residual activity"
endpoint_result = "98.71%"

[[record]]
molecule = "CCCCSP(=O)(SCCCC)SCCCC [S,S,S,-TRIBUTYLPHOSPHOROTRITHIOATE]"
observation_type = "residual activity"
endpoint_result = "111.8%"

[[record]]
molecule = "CCOC(=O)[C@H](CCc1ccccc1)N[C@H]1CCc2ccccc2N(CC(=O)O)C1=O.Cl [BENAZEPRIL HYDROCHLORIDE]"
observation_type = "residual activity"
endpoint_result = "84.15%"

[[record]]
molecule = "CCCCN(CCCC)CCCOC(=O)c1ccc(N)cc1"
observation_type = "residual activity"
endpoint_result = "114.4%"

[[record]]
molecule = "O=c1cc(-c2ccccc2)oc2c(O)c(O)ccc12 [7,8-DIHYDROXYFLAVONE]"
observation_type = "residual activity"
endpoint_result = "140.6%"

[[record]]
molecule = "O=C(O)c1cc(O)c(O)c(O)c1"
observation_type = "residual activity"
endpoint_result = "91.35%"

[[record]]
molecule = "CCCNC(C)C(=O)Nc1ccccc1C.Cl (stereo not drawn) [PRILOCAINE HYDROCHLORIDE]"
observation_type = "residual activity"
endpoint_result = "74.6%"

[[record]]
molecule = "COC1=CC(=O)C=C(OC)C1=O"
observation_type = "residual activity"
endpoint_result = "101.9%"

[[record]]
molecule = "CCCCC(=O)N(Cc1ccc(-c2ccccc2-c2nnn[nH]2)cc1)[C@H](C(=O)O)C(C)C"
observation_type = "residual activity"
endpoint_result = "56.31%"


Looking up `Cc1cccc(C)c1N=C1NCCCS1` , I found its residual activity recorded as 83.59%

Record summary for CC(=O)O[C@H]1CC[C@@]2(C)[C@@H](CC[C@@H]3[C@@H]2CC(=O)[C@]2(C)[C@@H]4[C@H](C[C@@H]32)O[C@]2(CC[C@@H](C)CO2)[C@H]4C)C1 [HECOGENIN ACETATE] : reported residual activity = 102%

The molecule identified as CC(N)C(=O)NC(Cc1ccccc1)C(=O)O (racemic) registered its residual activity at 75.84%

get_value(item= `C=C1[C@@H]2CC[C@@]3(C)[C@H](c4ccoc4)OC(=O)C[C@]13O[C@H]1C[C@H](OC(C)=O)C(C)(C)[C@H](CC(=O)OC)[C@]12C` , readout=residual activity) returns 21.87%

For this molecule ( `O=C(CCBr)N1CCN(C(=O)CCBr)CC1` ), measured residual activity is 82.4%

---

A collection of compounds and their measured pIC50
SYSTEM TESTED: UniProt:Q9Y6L6
Sequence (Q9Y6L6 whole entry): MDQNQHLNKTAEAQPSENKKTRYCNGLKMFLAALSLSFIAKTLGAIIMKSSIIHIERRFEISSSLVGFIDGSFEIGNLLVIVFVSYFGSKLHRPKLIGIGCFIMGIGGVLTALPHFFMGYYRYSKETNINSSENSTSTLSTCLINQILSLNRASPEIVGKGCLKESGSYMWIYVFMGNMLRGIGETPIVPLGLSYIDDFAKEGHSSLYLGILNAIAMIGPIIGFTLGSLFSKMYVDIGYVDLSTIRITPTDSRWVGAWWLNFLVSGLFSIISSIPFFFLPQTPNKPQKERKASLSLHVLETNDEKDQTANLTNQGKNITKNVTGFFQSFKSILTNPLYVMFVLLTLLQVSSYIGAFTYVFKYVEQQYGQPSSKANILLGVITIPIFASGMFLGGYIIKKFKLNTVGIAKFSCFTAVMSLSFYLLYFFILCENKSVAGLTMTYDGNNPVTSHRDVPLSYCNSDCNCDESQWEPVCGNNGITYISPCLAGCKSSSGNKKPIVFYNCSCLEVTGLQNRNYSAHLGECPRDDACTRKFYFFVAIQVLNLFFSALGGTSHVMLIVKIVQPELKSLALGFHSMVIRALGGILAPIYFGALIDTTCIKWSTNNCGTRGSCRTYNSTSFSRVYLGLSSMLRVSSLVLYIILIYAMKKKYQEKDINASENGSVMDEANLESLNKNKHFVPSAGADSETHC
# pIC50 is unitless: minus log10 of the molar concentration; print number only

[[record]]
compound = "C=C1[C@@H]2CC[C@@]3(C)[C@H](c4ccoc4)OC(=O)C[C@]13O[C@H]1C[C@H](OC(C)=O)C(C)(C)[C@H](CC(=O)OC)[C@]12C"
observation_type = "pIC50"
endpoint_result = 6.03

[[record]]
compound = "CC(C)CCCC1(C)C=Cc2c(O)c3c(c(CCC(C)C)c2O1)OC12C(CC4CC1C(C)(C)OC2(CCC(C)C(=O)O)C4O)C3=O (centres undefined) [DECAHYDROGAMBOGIC ACID]"
observation_type = "pIC50"
endpoint_result = 5.94

[[record]]
compound = "CC(=O)O[C@@H]1CC[C@]2(C)[C@H](C[C@@H](OC(C)=O)[C@]3(C)C4=CC(=O)O[C@H](c5ccoc5)[C@@]4(C)CC[C@@H]23)C1(C)C"
observation_type = "pIC50"
endpoint_result = 6.09


Observed pIC50, UniProt:Q9Y6L6, C=C1[C@@H]2CC[C@@]3(C)[C@H](c4ccoc4)OC(=O)C[C@]13O[C@H]1CC(=O)C(C)(C)[C@H](C(OC(C)=O)C(=O)OC)[C@]12C (some centres undefined) [METHYL 6-ACETOXYANGOLENSATE] : 5.84

---

SYSTEM TESTED: Solute carrier organic anion transporter family member 1B3 (Homo sapiens, UniProt Q9NPD5)
Sequence (Q9NPD5 whole entry): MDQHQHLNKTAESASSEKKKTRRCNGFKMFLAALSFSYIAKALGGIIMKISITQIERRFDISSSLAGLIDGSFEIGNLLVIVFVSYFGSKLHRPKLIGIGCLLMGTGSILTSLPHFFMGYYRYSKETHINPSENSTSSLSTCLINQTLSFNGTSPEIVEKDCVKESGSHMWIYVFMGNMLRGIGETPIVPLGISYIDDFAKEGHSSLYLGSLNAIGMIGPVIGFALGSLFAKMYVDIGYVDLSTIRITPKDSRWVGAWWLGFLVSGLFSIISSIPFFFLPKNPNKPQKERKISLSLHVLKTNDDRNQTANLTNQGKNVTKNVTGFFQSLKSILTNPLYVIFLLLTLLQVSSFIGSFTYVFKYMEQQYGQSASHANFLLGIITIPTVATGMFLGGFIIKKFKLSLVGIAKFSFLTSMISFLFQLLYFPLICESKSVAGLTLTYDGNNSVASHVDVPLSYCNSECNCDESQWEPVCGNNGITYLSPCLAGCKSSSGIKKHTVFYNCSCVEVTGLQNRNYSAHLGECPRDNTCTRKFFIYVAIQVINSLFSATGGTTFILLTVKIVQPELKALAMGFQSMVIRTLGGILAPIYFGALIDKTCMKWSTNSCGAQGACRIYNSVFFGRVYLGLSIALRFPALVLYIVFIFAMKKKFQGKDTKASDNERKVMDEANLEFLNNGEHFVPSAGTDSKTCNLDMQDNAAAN
SETTINGS: chinese hamster, cho, 10 µM
OBSERVATION TYPE: residual activity (%)
Give the number; % is assumed, so skip it.

Previously resolved entries follow.
[[record]]
compound = "C=CC(C)(O)CC/C=C(\\C)CCC=C(C)C (configuration not stated) [NEROLIDOL]"
unit_descriptor = "%"
endpoint_result = 131.1

[[record]]
compound = "CC(C)c1ccc2c(c1)CC[C@H]1[C@](C)(C(N)=O)CCC[C@]21C [DEHYDROABIETAMIDE]"
unit_descriptor = "%"
endpoint_result = 106.2

[[record]]
compound = "C[C@@H]1C(=O)O[C@H]2C[C@@]34[C@H]5C[C@@H](C(C)(C)C)[C@]36[C@@H](OC(=O)[C@@H]6O)O[C@@]4(C(=O)O5)[C@]21O [GINKGOLIDE A]"
unit_descriptor = "%"
endpoint_result = 113.8

[[record]]
compound = "CC(C)(OC(=O)c1ccccc1)[C@@H]1Cc2cc3ccc(=O)oc3cc2O1 [FELAMIDIN]"
unit_descriptor = "%"
endpoint_result = 168.9


residual activity in this record for O=C1C=CC(=C(c2ccc(O)cc2)c2ccc(O)cc2)C=C1 [AURIN] : 20.35

// field: residual activity; key: O=c1ccc2cc(O)c(O)cc2o1 [ESCULETIN] ; value = 105.3

Looking up CCN(CCO)CCCC(C)Nc1ccnc2cc(Cl)ccc12.O=S(=O)(O)O (configuration not stated) [HYDROXYCHLOROQUINE SULFATE] , I found its residual activity recorded as 90.84

O=C1C(Cl)=C(Cl)C(=O)C(Cl)=C1Cl [CHLORANIL] yielded residual activity of 74.83

residual activity for O=C([O-])Cc1ccccc1Nc1c(Cl)cccc1Cl.[Na+] [DICLOFENAC SODIUM] is 71.01

Documented residual activity of O=C1CN(/N=C/c2ccc([N+](=O)[O-])o2)C(=O)N1 [NITROFURANTOIN] : 100.8

Measured residual activity, O=C(O)COc1ccc(Cl)cc1Cl [2,4-DICHLOROPHENOXYACETIC ACID] : 104.1

Noted for CCOP(=S)(OCC)Oc1ccc2c(C)c(Cl)c(=O)oc2c1 [COUMAPHOS] : its residual activity reads 124.8

Recorded residual activity (compound `C=C[C@@](C)(O)CC[C@H]1C(=C)C[C@H](OC(C)=O)[C@H]2C(C)(C)CCC[C@]12C` ): 80.26

For reference, reported residual activity for NC[C@H](O)c1ccc(O)c(O)c1 [NOREPINEPHRINE] stands at 102.3

Entry under test: CC(=O)NC(C(=O)O)C(C)(C)SN=O (configuration not stated) . Its residual activity was 84.98

response.value for C(=C\c1ccccc1)/CN1CCN(C(c2ccccc2)c2ccccc2)CC1 [CINNARIZINE] (field: residual activity) = 102.7

GET /value?item= COc1ccc(C2C(=O)c3ccccc3C2=O)cc1 [ANISINDIONE] &field=residual activity returns 75.63
